Hello, the source for this data is PubChem BioAssay, in case you need it.

- Method Summary: viability loss in pontine glioma line – cell-based, SU-DIPG-XVII, MIPE5.0, CellTiter-Glo, qHTS, dose response (AID 1347060);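 for AC50: cells exposed to compound for 48 hours before viability readout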
- Recorded Conditions: CellTiter-Glo ATP luminescence
Records with an inconclusive call do not appear. Calls of active or inactive are those of the source. No cut-off is given here; in the data, nearly all actives have AC50 up to about 26 µM.
Outcomes: TRUE (active), FALSE (inactive)

# Structure As Smiles, Label Value
measured = [
    ("C[C@H]1CN(C[C@H](Cc2ccccc2)C(=O)NCC(=O)O)CC[C@@]1(C)c1cccc(O)c1", "FALSE"),
    ("O=C(CCCCCCNC(=O)c1cnc(N(c2ccccc2)c2ccccc2)nc1)NO", "TRUE"),
    ("Cc1ccc(C(=O)Nc2cccc(C(F)(F)F)c2)cc1Nc1nc(-c2cccnc2)nc2c1cnn2C", "TRUE"),
    ("CC1(C)CCC2=C(O1)c1ccccc1C(=O)C2=O", "TRUE"),
    ("COc1cc(N2CCN(C)CC2)ccc1Nc1ncc2c(n1)N(C)c1ccccc1C(=O)N2C", "TRUE"),
]

----------
- Method Summary: growth inhibition, single agents and combos, ICB984, cell-based, cisplatin or BGB combos, synergistic combos for chromothripsis tumors (AID 1671451);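 note: cells exposed for 96 hours before readout; 0% = vehicle DMSO and 100% = killing by high DMSO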
- Recorded Conditions: ICB984 medulloblastoma cells, drug combinations, cisplatin combo, at 5 µM, stronger effect = higher value
Measurement Kind: inhibition (%)

# Molecule, Measured Number
data = [
    ("NCCOc1cc(C(=O)Nc2cc(OCCN)c3ccccc3n2)nc(C(=O)Nc2cc(OCCN)c3ccccc3n2)c1", -7.59),
    ("N=C1CCCN1Cc1[nH]c(=O)[nH]c(=O)c1Cl", -26.7),
    ("COc1ccc(C(=O)CC2(O)C(=O)Nc3c(Cl)ccc(Cl)c32)cc1 (stereo not given)", -25.3),
    ("O=c1[nH]cnc2ccccc12", -22.5),
    ("CCCCc1nc2cc(/C=C/C(=O)NO)ccc2n1CCN(CC)CC", -16.6),
    ("COc1ccc(-n2c(SCCCN3C(=O)c4cccc5cccc(c45)C3=O)nnc2-c2ccncc2)cc1", -32.6),
    ("CN[C@@H]1CN(c2ccc3c(=O)c(C(=O)O)cn(-c4nccs4)c3n2)C[C@H]1OC", -34.3),
    ("O=C(O)CO.[NH2-].[NH2-].[Pt+2]", -25.6),
    ("O=C(/C=C/c1cccc(S(=O)(=O)Nc2ccccc2)c1)NO", -34.9),
    ("CC(C)OC(=O)[C@H](C)N[P@](=O)(OC[C@H]1O[C@@H](n2ccc(=O)[nH]c2=O)[C@](C)(F)[C@@H]1O)Oc1ccccc1", -12.1),
]

----------
- Method Summary: drug combination growth inhibition, ovarian cancer – cell-based, oncology-focused library, rucaparib conditional, profiling panel (AID 1508598)
- Recorded Conditions: patient-derived ovarian cancer cells, CellTiter-Glo viability, 144 h; at 1.25 µM; OCI-P5x cells; without rucaparib
Active and inactive are the calls of the source.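 Rule for the calls: active = normalized viability below 100% at a tested concentration; inactive = the rest.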
Outcome codes: class 1 (active), class 0 (inactive)

# Structure As Smiles, Label Value
rows = [
    ("CC1(C)CNc2cc(NC(=O)c3cccnc3NCc3ccncc3)ccc21", "class 1"),
    ("CCc1cc(Nc2nccc(-c3c(-c4ccc(OC)c(C(=O)Nc5c(F)cccc5F)c4)nc4ccccn34)n2)c(OC)cc1N1CCC(N2CCN(S(C)(=O)=O)CC2)CC1", "class 1"),
    ("C=CC(=O)Nc1cc(Nc2nccc(-c3cn(C)c4ccccc34)n2)c(OC)cc1N(C)CCN(C)C", "class 1"),
    ("Cc1cccc(-c2nn3c(c2-c2ccnc4ccc(C(N)=O)cc24)CCC3)n1", "class 0"),
    ("Cn1cc(CNCC2CCN(c3ncc(C(=O)NO)cn3)CC2)c2ccccc21", "class 1"),
    ("CC(C)C[C@H](NC(=O)CNC(=O)c1cc(Cl)ccc1Cl)B(O)O", "class 1"),
    ("Cn1cc(-c2ccc3nnc(C(F)(F)c4ccc5ncccc5c4)n3n2)cn1", "class 0"),
    ("CC[C@H](Nc1ncnc2nc[nH]c12)c1nc2cccc(F)c2c(=O)n1-c1ccccc1", "class 0"),
    ("C#CC[C@H](c1nc2cc(Cl)ccc2c(=O)n1Nc1ccccc1)N(CCCN)C(=O)c1cccc(Cl)c1F", "class 1"),
]

----------
- Method Summary: MELAS cybrid and Rieske KO viability enhancers – cell-based, MELAS cybrids, Rieske KO mouse fibroblasts, CellTiter-Glo, primary screen (AID 1508586);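 note: z relative to plate mean and SD of compound and empty wells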
- Recorded Conditions: MELAS cybrid survival, low glucose, CellTiter-Glo 48 h; stronger effect = higher value
The reader will find reported z-score values listed item by item below.
Measurement Kind: z-score

# Compound, Measurement Kind, Measured Number
data = [
    ("CC(C)(O)CC(=O)NCCn1ccc2ncnc(Nc3ccc(Oc4cccc(C(F)(F)F)c4)c(Cl)c3)c21", "z-score", -0.328),
    ("Cc1ccc(Sc2ccccc2N2CCNCC2)c(C)c1", "z-score", -0.442),
    ("CC(=O)Nc1ccc(C(=O)Nc2ccccc2N)cc1", "z-score", -0.168),
    ("Cn1cnc(=N)c2[nH]cnc21", "z-score", -0.304),
    ("NC1(c2ccc(-c3nc4ccn5c(=O)[nH]nc5c4cc3-c3ccccc3)cc2)CCC1", "z-score", -0.154),
    ("CCNC(=O)c1noc(-c2cc(C(C)C)c(O)cc2O)c1-c1ccc(CN2CCOCC2)cc1", "z-score", 2.88),
    ("Nc1nc(Nc2ccc(S(N)(=O)=O)cc2)nn1C(=O)c1c(F)cccc1F", "z-score", -0.135),
    ("CN(C)Cc1cccc(N=C(c2ccccc2)c2c(O)[nH]c3cc(C(=O)N(C)C)ccc23)c1", "z-score", -0.347),
    ("CC(C)CN(C[C@@H](O)[C@H](Cc1ccccc1)NC(=O)O[C@H]1CO[C@H]2OCC[C@H]21)S(=O)(=O)c1ccc(N)cc1", "z-score", 0.705),
    ("Cc1ccc(O)c(C(CCN(C(C)C)C(C)C)c2ccccc2)c1 (stereo not given)", "z-score", -0.247),
]

----------
- Method Summary: MELAS cybrid and Rieske KO viability enhancers – cell-based, MELAS cybrids, Rieske KO mouse fibroblasts, CellTiter-Glo, primary screen (AID 1508586);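 note: z relative to plate mean and SD of compound and empty wells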
- Recorded Conditions: Rieske KO mouse fibroblast survival, low glucose, CellTiter-Glo 72 h
The threshold is inclusive: z-score of exactly -0.02 counts as Yes; values below receive No.

# Compound, Label Value
rows = [
    ("Cc1cnc(-c2cc(N3CCN(C(=O)CCS(C)(=O)=O)CC3)ncc2Cl)c(C)c1", "Yes"),
    ("Cc1cc(OCc2nnc(SC3CCCC3)n2-c2cccnc2)ccc1-c1ccc(S(C)(=O)=O)cc1", "No"),
    ("COc1ccc(-n2c(C)c([N+](=O)[O-])c3ccc(O)cc32)cc1", "No"),
    ("Cc1ccc(C(=O)Nc2cccc(C(F)(F)F)c2)cc1Nc1nc(-c2cccnc2)nc2c1cnn2C", "Yes"),
    ("Cn1cc(-c2cnn3c(N)c(Br)c(C4CCCNC4)nc23)cn1 (stereo unspecified)", "No"),
    ("COc1ccc(-c2ccc3ncc4c(c3c2)n(-c2ccc(N3CCNCC3)c(C(F)(F)F)c2)c(=O)n4C)cn1", "No"),
    ("COc1ccc(-n2nc(C(N)=O)c3c2C(=O)N(c2ccc(N4CCCCC4=O)cc2)CC3)cc1", "No"),
    ("Cc1cc(C)c2c(c1)[C@@H](N(Cc1cc(C(F)(F)F)cc(C(F)(F)F)c1)c1nnn(C)n1)CCCN2CC1CCC(C(=O)O)CC1 (stereo partly specified)", "No"),
    ("COc1cc2ncc(-c3ccccc3)nc2cc1OC", "Yes"),
    ("C[C@@H]1NC(=O)NC1=O", "No"),
    ("O=C(Nc1nc2cccc(-c3ccc(CN4CCS(=O)(=O)CC4)cc3)n2n1)C1CC1", "No"),
    ("Cc1ccccc1C(C(=O)NC1CCCCC1)N(C(=O)Cn1ccnc1C)c1cccc(F)c1 (stereo unspecified)", "Yes"),
    ("Cc1nc(C(=O)NCC(=O)O)c(O)c2ccc(Oc3ccccc3)cc12", "Yes"),
    ("CN1CCC(c2c(O)cc(O)c3c(=O)cc(-c4ccccc4Cl)oc23)C1CO (stereo unspecified)", "No"),
    ("CCCNC1CCc2nc(N)sc2C1 (stereo unspecified)", "Yes"),
    ("COCCn1c2c([n+](Cc3cnccn3)c1C)C(=O)c1ccccc1C2=O", "No"),
    ("CC1=C(C(=O)Nc2cc3cn[nH]c3cc2F)C(c2ccc(C(F)(F)F)cc2)CC(=O)N1 (stereo unspecified)", "Yes"),
    ("O=C(NCc1ccccc1)c1csc(Nc2ccncn2)n1", "No"),
    ("Cc1cc(N2CCOCC2)ccc1Nc1nc(NC2CCCCC2)c2[nH]cnc2n1", "No"),
    ("CNCc1ccc(-c2[nH]c3cc(F)cc4c3c2CCNC4=O)cc1", "No"),
    ("Cc1ccc(NC(=O)C2(c3ccc4c(c3)OC(F)(F)O4)CC2)nc1-c1cccc(C(=O)O)c1", "No"),
]
